# assay.target: HDAC1 (Homo sapiens, UniProt Q13547)
# Construct: purchased BPS Biosciences (San Diego, Calif.)
# Sequence (Q13547 whole entry): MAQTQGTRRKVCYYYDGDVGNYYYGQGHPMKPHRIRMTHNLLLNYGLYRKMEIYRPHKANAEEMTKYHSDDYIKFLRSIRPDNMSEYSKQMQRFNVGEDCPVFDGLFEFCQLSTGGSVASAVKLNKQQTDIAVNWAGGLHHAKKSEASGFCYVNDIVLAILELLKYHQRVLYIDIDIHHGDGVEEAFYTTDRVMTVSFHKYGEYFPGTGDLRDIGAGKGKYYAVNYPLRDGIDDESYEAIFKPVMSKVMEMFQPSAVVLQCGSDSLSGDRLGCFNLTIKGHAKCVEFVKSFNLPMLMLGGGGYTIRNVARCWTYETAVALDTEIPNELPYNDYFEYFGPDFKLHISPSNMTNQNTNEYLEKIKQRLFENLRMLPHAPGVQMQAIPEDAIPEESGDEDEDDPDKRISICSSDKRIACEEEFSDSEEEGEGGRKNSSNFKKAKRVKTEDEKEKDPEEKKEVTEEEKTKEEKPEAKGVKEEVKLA
# assay.name: RapidFire Mass Spec assay of HDAC1 deacetylase activity with acetylated peptide substrates
# Assay type: biochemical
# assay.setup: FIGS. 1B and 1D; 2 hour incubation of HDAC1 at room temperature prior to addition to reaction mix; read-out: EC50 of HDAC1 activation
measured.endpoint: EC50 (nM)
# output: bare number, implied unit nM

Identify measured EC50 associated with O=C(c1cc(O)c(O)c(O)c1)c1ccc(O)c(O)c1O [exifone]
45

----------
# assay.target: HDAC2 (Homo sapiens, UniProt Q92769)
# Sequence (Q92769 whole entry): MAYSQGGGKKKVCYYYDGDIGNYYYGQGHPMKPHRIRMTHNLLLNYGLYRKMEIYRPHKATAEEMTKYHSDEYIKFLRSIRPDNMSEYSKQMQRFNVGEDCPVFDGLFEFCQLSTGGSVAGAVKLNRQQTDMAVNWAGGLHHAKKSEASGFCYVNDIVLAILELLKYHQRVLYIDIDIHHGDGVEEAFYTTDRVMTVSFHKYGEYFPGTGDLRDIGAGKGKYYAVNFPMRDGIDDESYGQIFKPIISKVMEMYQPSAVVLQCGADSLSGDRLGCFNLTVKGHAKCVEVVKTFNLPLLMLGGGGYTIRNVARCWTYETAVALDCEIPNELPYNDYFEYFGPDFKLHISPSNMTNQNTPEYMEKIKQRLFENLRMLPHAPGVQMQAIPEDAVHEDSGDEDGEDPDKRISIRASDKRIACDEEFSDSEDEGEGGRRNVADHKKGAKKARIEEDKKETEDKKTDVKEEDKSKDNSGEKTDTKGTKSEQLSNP
# assay.name: RapidFire Mass Spec assay of HDAC2 deacetylase activity
# assay.setup: FIG. 4; read-out: EC50 for HDAC2 activation
measured.endpoint: pEC50
For clarity, pEC50 is expressed as the negative log10 of concentration in mol/L.

Give measured pEC50 for O=C(c1cc(O)c(O)c(O)c1)c1ccc(O)c(O)c1O (HDAC2 (Homo sapiens, UniProt Q92769)).
7.09
